Data credit: patent US5639603A

- target or system: monoclonal antibody D32.39
- experiment notes: competition binding experiment with radiolabelled tracer peptide on D32.39-coated wells
- assay context: competition with 33P-labelled tracer LRRASLGGGRRQFKVVT 50 pM; wells coated with D32.39 0.1 μg/mL; 2 hr at 4° C.; IC50 taken as close to Kd
# Lookup of reported Kd keyed by entry
Please state the figure in nM; there is no need to write the unit.

Study these solved cases before continuing.
> print(dat)
   residue.sequence  assay.value
1          TTRRFRVT          4.3
2          TVRQFKTT          8.8
3          RQFRTVQT           76
4          KQFKVTQT          410

Now take the following sequence into account.
### Prompt Please report the measured Kd for `QQFKVVQT`
### Response 370
